target: PKCζ (Homo sapiens, UniProt Q05513)
Sequence (Q05513 1-113): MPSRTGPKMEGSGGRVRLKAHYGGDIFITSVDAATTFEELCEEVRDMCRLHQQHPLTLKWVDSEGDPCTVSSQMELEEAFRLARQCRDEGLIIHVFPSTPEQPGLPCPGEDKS
Sequence (Q9NPB6 whole entry partner): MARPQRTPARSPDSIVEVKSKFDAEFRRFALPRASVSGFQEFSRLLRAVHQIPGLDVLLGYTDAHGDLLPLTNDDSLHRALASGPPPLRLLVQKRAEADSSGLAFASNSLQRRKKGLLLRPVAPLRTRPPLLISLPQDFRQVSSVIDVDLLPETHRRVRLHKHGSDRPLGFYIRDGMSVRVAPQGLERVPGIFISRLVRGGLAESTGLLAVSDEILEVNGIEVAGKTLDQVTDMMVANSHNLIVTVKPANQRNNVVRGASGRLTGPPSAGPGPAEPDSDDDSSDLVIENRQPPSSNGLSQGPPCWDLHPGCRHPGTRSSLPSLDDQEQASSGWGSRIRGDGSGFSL
measured endpoint: pIC50
Numbers only, as −log10 of the molar value.

pIC50 for O=C(O)CC([S][Au])C(=O)O (stereo not shown) [ATM, Aurothiomalate] ?
5.52
